assay: In vivo formation of NAFB1 and NAHFB1 in rat kidney and liver (HPLC-ESI-MS/MS); design: unit not given here; conditions: Liver; treatment FB1 1 mg/kg BW ip, 5 days
RECORDED_ENDPOINT: N-acyl-derivative in tissue sample, mean

Study these solved cases before continuing.
COMPOUND	RECORDED_MEASUREMENT
CCCCCCCC/C=C\CCCCCCCCCCCCCC(=O)N[C@@H](C)[C@@H](O)C[C@H](O)CCCC[C@@H](O)C[C@H](C)C[C@H](O)[C@H](O)[C@H](C)CCCC [HFB1C24:1]	0,1
CCCCCCCCCCCCCCCCCC(=O)NC(C)C(O)CC(O)CCCCC(O)CC(C)CC(OC(=O)CC(CC(=O)O)C(=O)O)C(OC(=O)CC(CC(=O)O)C(=O)O)C(C)CCCC (stereo not drawn) [FB1C18:0]	2,5

Next, consider the following compound.
Given the compound CCCCCCCCCCCCCCCCCCCC(=O)N[C@@H](C)[C@@H](O)C[C@H](O)CCCC[C@@H](O)C[C@H](C)C[C@H](O)[C@H](O)[C@H](C)CCCC [HFB1C20:0] , what is its reported N-acyl-derivative in tissue sample, mean?
0,2

* * *

experiment: In vivo formation of NAFB1 and NAHFB1 in rat kidney and liver (HPLC-ESI-MS/MS); set-up: unit not given here; details: Kidney; treatment FB1 1 mg/kg BW ip, 5 days
RECORDED_ENDPOINT: N-acyl-derivative in tissue sample, mean

MOLECULE	N-acyl-derivative in tissue sample, mean
CCCCCCCCCCCCCCCCCCCCCCCC(=O)NC(C)C(O)CC(O)CCCCC(O)CC(C)CC(OC(=O)CC(CC(=O)O)C(=O)O)C(OC(=O)CC(CC(=O)O)C(=O)O)C(C)CCCC (centres unmarked)	2,7

Please look up its N-acyl-derivative in tissue sample, mean: `CCCCCCCCCCCCCCCCCCCC(=O)N[C@@H](C)[C@@H](O)C[C@H](O)CCCC[C@@H](O)C[C@H](C)C[C@H](O)[C@H](O)[C@H](C)CCCC`
0,1

N-acyl-derivative in tissue sample, mean for CCCCCCCCC=CCCCCCCCCCCCCCC(=O)NC(C)C(O)CC(O)CCCCC(O)CC(C)CC(OC(=O)CC(CC(=O)O)C(=O)O)C(OC(=O)CC(CC(=O)O)C(=O)O)C(C)CCCC (centres unmarked) ?
4,3

Need N-acyl-derivative in tissue sample, mean, item CCCCCCCCCCCCCCCCCCCC(=O)NC(C)C(O)CC(O)CCCCC(O)CC(C)CC(OC(=O)CC(CC(=O)O)C(=O)O)C(OC(=O)CC(CC(=O)O)C(=O)O)C(C)CCCC (centres unmarked)
0,1

Quick one: N-acyl-derivative in tissue sample, mean of `CCCCCCCCCCCCCCCC(=O)N[C@@H](C)[C@@H](O)C[C@H](O)CCCC[C@@H](O)C[C@H](C)C[C@H](O)[C@H](O)[C@H](C)CCCC` ?
0,2
